Assay: chemical genetic growth profiling, strain panel (AID 1159580);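 further: tested at 20 µM; growth read once vehicle control cultures reached saturation at 30 °C; 1 = growth at the plate median or of vehicle wells; lower values mean less growth of the strain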
Details: S. cerevisiae deletion strains, growth OD, locus YCL016C, strain dcc1, active compounds read low
Out of some 5,500 compounds screened, about 2,000 (36%) were called active. Not shown: some 18% with an inconclusive outcome. Some of the results follow. *1 amine or outer side, *2 acyl side, *3 side chain or, on linkers, in order; H or OH if unused. Where a SMILES comes first, the peptide text is derived from it. Bridges are numbered along the chain shown (N, C = ends). [ ]: non-standard residue; d: D form. The star is where a group is joined. ξ: configuration not given here. ΔAla(E,3-NHCONH2) = NC(=O)N/C=C(/N)C(=O)O; X2 = NC1=NCCC(C(N[*:1])C(=O)[*:2])N1; ξβ3hOrn = NCCCC(N)CC(=O)*; Dap = NC[CH](N)C(=O)O
measured parameter: normalized growth

INSERT INTO assay_data (molecule, assay_value) VALUES
  ('CCOC([O-])=Nc1c[n+](N2CCOCC2)no1', 0.978),
  ('CC(=O)OCC(=O)[C@@]12OC3(CCCC3)O[C@@H]1CC1C3CCC4=CC(=O)C=C[C@]4(C)[C@@]3(F)[C@@H](O)C[C@@]12C (some centres not stated)', 1.01),
  ('NCCCC(N)CC(=O)NCC1NC(=O)C(CO)NC(=O)C(N)CNC(=O)C(C2CCN=C(N)N2)NC(=O)/C(=C\NC(N)=O)NC1=O (stereo not drawn) (H-[Dap]S[Dap](ξβ3hOrn)[ΔAla(E,3-NHCONH2)][X2]; lactam 1-C; configuration not given here)', 0.989),
  ('Cc1cc(C(C)(C)C)c(O)c(C)c1CC1=NCCN1', 1.02),
  ('CN(C)CCc1c[nH]c2ccc(CS(=O)(=O)N3CCCC3)cc12', 1.02),
  ('CO[C@H]1C[C@H](O[C@H]2[C@H](C)[C@@H](OC3O[C@H](C)C[C@H](N(C)C)[C@H]3OC(C)=O)[C@@H](C)C[C@]3(CO3)C(=O)[C@H](C)[C@@H](OC(C)=O)[C@@H](C)[C@@H](C)OC(=O)[C@@H]2C)O[C@@H](C)[C@@H]1OC(C)=O (some centres not stated)', 1),
  ('NC(N)=NC(N)=Nc1ccccc1', 1);

====

Assay: chemical genetic growth profiling, strain panel (AID 1159580);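 further: tested at 20 µM; growth read once vehicle control cultures reached saturation at 30 °C; 1 = growth at the plate median or of vehicle wells; lower values mean less growth of the strain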
Conditions: S. cerevisiae deletion strains, growth OD, locus YDR388W
The whole screen tested about 5,500 compounds, of which about 2,000 (36%) were called active. Not shown: some 18% with an inconclusive outcome. Rule as the data show it: active = normalized growth mostly below about 0.91 (no sharp cut-off); inconclusive = no clear call, values can overlap the other calls; inactive = mostly above about 0.92. The list shows a part of the results.
Outcome codes: YES for active, NO for inactive

INSERT INTO assay_data (compound, assigned_label) VALUES
  ('COc1cc2c(cc1O)CCNC2C (stereo not drawn)', 'NO'),
  ('CN1C(=O)CCS(=O)(=O)C1c1ccc(Cl)cc1 (stereo not drawn)', 'NO'),
  ('CC(=O)NO', 'NO'),
  ('C[C@]12CCC(=O)C=C1CCC1C2C(=O)C[C@@]2(C)C1CC[C@]2(O)C(=O)CO (stereo partly drawn)', 'NO'),
  ('NC1C[C@H]1c1ccccc1 (stereo partly drawn)', 'NO'),
  ('CC1=CC(=O)C2=C(C)CC(O)C3C(C)C(=O)OC3C12 (stereo not drawn)', 'NO'),
  ('CC(=O)Oc1cccc(C(=O)O)c1OC(C)=O', 'NO'),
  ('CC1=NN(c2ccccc2)C(=O)C1', 'NO'),
  ('CC1(C)C(=O)[C@@H]2O[C@@H]2[C@@]2(C)C1CC(=O)[C@]1(C)C2CC[C@@]2(C)[C@H](c3ccoc3)OC(=O)[C@H]3O[C@]321 (stereo partly drawn)', 'NO'),
  ('COc1ccc(C(=O)O)c(O)c1OC', 'NO'),
  ('CC(=O)[O][Hg][c]1ccccc1', 'YES'),
  ('COc1cc2c(cc1OC)[C@@]13CCN4CC5=CCOC6CC(=O)N2C1[C@H]6[C@H]5C[C@H]43 (stereo partly drawn)', 'NO'),
  ('Cc1cc(C(C)(C)C)cc(C)c1CC1=NCCN1', 'NO'),
  ('COc1cc(NS(=O)(=O)c2ccc(N)cc2)ncn1', 'NO'),
  ('COc1ccc(C(=O)c2ccc(O)cc2)c(O)c1O', 'NO'),
  ('COc1cc(/C=C/C=O)cc(OC)c1OC', 'NO'),
  ('COc1ccc(C(=O)c2ccccc2)c(O)c1O', 'NO'),
  ('CCNc1nc(Cl)nc(NCC)n1', 'NO'),
  ('C=C(C)[C@@H]1CC[C@]2(CO)CC[C@]3(C)[C@H](CCC4[C@@]5(C)CC[C@H](O)C(C)(C)C5CC[C@]43C)C12 (stereo partly drawn)', 'NO'),
  ('CCOc1ccc(C(=O)c2ccc(O)c(O)c2O)cc1', 'NO'),
  ('CCN(CC)CCNC(=O)c1cc(Cl)c(N)cc1OC', 'NO'),
  ('CC1=CC2C(C(C)C)CCC(C)(O)C2CC1 (stereo not drawn)', 'NO'),
  ('c1ccc([C@H]2CN3CCSC3=N2)cc1', 'NO'),
  ('CCC1(CC)C(=O)C=CNC1=O', 'NO'),
  ('NC(N)=NC(N)=Nc1ccccc1', 'NO'),
  ('CCOc1ccc(C(=O)c2cc(O)c(OC)c(OC)c2O)cc1', 'NO'),
  ('CCCc1nc2c(C)cc(-c3nc4ccccc4n3C)cc2n1Cc1ccc(-c2ccccc2C(=O)O)cc1', 'NO'),
  ('COc1cc(-c2oc3cc(O)ccc3c(=O)c2O)cc(OC)c1OC', 'NO'),
  ('Cc1cc(C(C)(C)C)c(O)c(C)c1CC1=NCCN1', 'NO'),
  ('NC1CC1c1ccccc1 (stereo not drawn)', 'NO'),
  ('C#C[C@]1(O)CCC2C3CCC4=Cc5oncc5C[C@]4(C)C3CC[C@@]21C (stereo partly drawn)', 'NO'),
  ('C[C@]12CCC(=O)C=C1CCC1C2[C@@H](O)C[C@@]2(C)C1CC[C@]2(O)C(=O)COC(=O)CCC(=O)O (stereo partly drawn)', 'NO'),
  ('CC(N)C(O)c1ccc(O)c(O)c1 (stereo not drawn)', 'NO'),
  ('COc1cnc(NS(=O)(=O)c2ccc(N)cc2)nc1', 'NO'),
  ('O=C(CCBr)N1CCN(C(=O)CCBr)CC1', 'NO'),
  ('CC(=O)OCC(=O)[C@@]1(O)CCC2C3CCC4=CC(=O)CC[C@]4(C)C3[C@@H](O)C[C@@]21C (stereo partly drawn)', 'NO'),
  ('COc1cc2c(cc1OC)[C@@H]1C(=O)c3ccc4c(c3O[C@@H]1CO2)CC(C(C)C)O4 (stereo partly drawn)', 'NO'),
  ('CC(=O)Oc1cccc2c1C(=O)c1c(OC(C)=O)cc(C(=O)O)cc1C2=O', 'YES'),
  ('COc1ccc(C2C(=O)c3ccccc3C2=O)cc1', 'NO'),
  ('CC(=O)OCC1=C(C(=O)O)N2C(=O)[C@@H](NC(=O)CCCC(N)C(=O)O)C2SC1 (stereo partly drawn)', 'NO'),
  ('CC[C@@H](CO)NC(=O)[C@@H]1C=C2c3cccc4[nH]cc(c34)C[C@H]2N(C)C1', 'NO'),
  ('NC[C@H]1O[C@H](O[C@H]2[C@H](O)[C@@H](O[C@H]3O[C@H](CO)[C@@H](O)[C@H](N)[C@H]3O)[C@H](N)C[C@@H]2N)[C@H](N)C[C@@H]1O', 'NO'),
  ('CCOc1ccc(NC(C)=O)cc1', 'NO');

====

Assay: chemical genetic growth profiling, strain panel (AID 1159580);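 further: tested at 20 µM; growth read once vehicle control cultures reached saturation at 30 °C; 1 = growth at the plate median or of vehicle wells; lower values mean less growth of the strain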
Conditions: S. cerevisiae deletion strains, growth OD, locus YBR279W, strain paf1, active compounds read low
In all, about 5,500 compounds went through this assay and about 2,000 (36%) were called active. Roughly 18% stayed inconclusive and do not appear here. This is one part of the list.
Property: normalized growth; scope: individual compounds
measured parameter: normalized growth

INSERT INTO results (compound, measured_parameter, assay_value) VALUES
  ('CN1CCN(CC(=O)N2c3ccccc3C(=O)Nc3cccnc32)CC1', 'normalized growth', 1.01),
  ('CC(NCCC(c1ccccc1)c1ccccc1)c1ccccc1 (stereo unspecified)', 'normalized growth', 0.893),
  ('CC(=O)O[C@@H]1CC[C@]2(C)C3CC[C@]4(C)C(=O)CCC4C3CC[C@H]2C1 (stereo partly specified)', 'normalized growth', 1),
  ('CC(=O)O[C@H]1CC[C@]2(C)C3CC(=O)[C@]4(C)C(C(C)=O)=CCC4C3CC[C@H]2C1 (stereo partly specified)', 'normalized growth', 0.996),
  ('CN(C)CCc1c[nH]c2ccc(CS(=O)(=O)N3CCCC3)cc12', 'normalized growth', 0.986),
  ('O=c1oc2c(O)c(O)cc3c(=O)oc4c(O)c(O)cc1c4c23', 'normalized growth', 0.699),
  ('c1ccc([C@H]2CN3CCSC3=N2)cc1', 'normalized growth', 1.02),
  ('COc1ccc2c(c1)[C@]13CCCC[C@H]1[C@H](C2)N(C)CC3', 'normalized growth', 0.998),
  ('CCCCCCCCCCCCCCCCCCOCC(O)CO (stereo unspecified)', 'normalized growth', 0.992),
  ('CN(C)CCc1c[nH]c2ccc(C[C@H]3COC(=O)N3)cc12', 'normalized growth', 1.01),
  ('CC(=O)O[C@H]1CC[C@]2(C)C3CC[C@@]4(C)C(CC5O[C@@]6(CCC(C)CO6)[C@@H](C)C54)C3CC[C@@H]2C1 (stereo partly specified)', 'normalized growth', 1.01);
